Test system: P. aeruginosa CDC-0110
ASSAY_PROCEDURE: microbe, parasite or virus in culture
Assay type: cell-based
SETUP_CONDITIONS: Pseudomonas aeruginosa, CDC0110, read-out: Minimum inhibitory concentration, P. aeruginosa CDC-0110
REPORTED_METRIC: MIC

Before answering, review these 2 worked examples.
compound=O=C(NCCS(=O)(=O)N1CCN(C(=O)N[C@H](C(=O)N[C@H]2Cc3ccc(F)c(C(=O)O)c3OB2O)c2ccc(P(=O)(O)O)cc2)C1=O)c1ccc(O)c(O)c1Cl assay_result="> 128 µg/mL"
compound="O=C(NCCCN1CCN(C(=O)NC(C(=O)N[C@H]2Cc3ccc(F)c(C(=O)O)c3OB2O)c2cc(F)c(O)c(O)c2Cl)C(=O)C1=O)c1cccc(O)c1 (stereo partly drawn)" assay_result="< 1 µg/mL"

Moving on to the next compound.
Noted for O=C(O)c1c(F)ccc2c1OB(O)[C@@H](NC(=O)[C@@H](NC(=O)N1CCN(Cc3ccc(O)c(O)c3Cl)C(=O)C1=O)c1ccc(P(=O)(O)O)cc1)C2 (single isomer, unassigned) : its MIC reads < 1 µg/mL
